# subject-of-test: HPPD (p-hydroxyphenylpyruvate dioxygenase) (Arabidopsis thaliana, UniProt P93836)
# Construct: gene HPD; recombinant, overexpressed in E. coli, tested in total soluble protein extract; 1SP9 given only as docking structure
# Sequence (P93836 whole entry): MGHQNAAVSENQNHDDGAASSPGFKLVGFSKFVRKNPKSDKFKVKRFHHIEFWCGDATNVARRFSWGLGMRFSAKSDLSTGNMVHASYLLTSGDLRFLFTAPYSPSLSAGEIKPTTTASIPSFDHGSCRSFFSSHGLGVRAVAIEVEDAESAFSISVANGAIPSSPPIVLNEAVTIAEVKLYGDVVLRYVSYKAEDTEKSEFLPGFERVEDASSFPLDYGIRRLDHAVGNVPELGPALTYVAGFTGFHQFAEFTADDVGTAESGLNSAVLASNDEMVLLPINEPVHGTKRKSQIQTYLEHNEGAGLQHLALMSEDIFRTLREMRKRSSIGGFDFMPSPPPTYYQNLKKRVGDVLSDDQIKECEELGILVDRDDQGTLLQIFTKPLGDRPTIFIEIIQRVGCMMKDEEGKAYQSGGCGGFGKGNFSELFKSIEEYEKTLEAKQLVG
# assay-remarks: HPLC of homogentisate formed ([…] nm), dose-response
# Type: biochemical
# test-parameters: read-out: I50 (μM) ^ab
Consider the following molecules and their measured IC50 readings.

molecule: Cc1ccccc1CCC(=O)C1C(=O)CCCC1=O
subject-of-test: HPPD (p-hydroxyphenylpyruvate dioxygenase) (Arabidopsis thaliana, UniProt P93836)
display-unit: µM
bound-type: =
IC50: 0.97
--
molecule: CCCCCc1noc2c1C(=O)C(O)CC2 (centres unmarked)
subject-of-test: HPPD (p-hydroxyphenylpyruvate dioxygenase) (Arabidopsis thaliana, UniProt P93836)
display-unit: µM
bound-type: >
IC50: 100
--
molecule: CN(C)c1ccc(CCC(=O)C2C(=O)CC(C)(C)CC2=O)cc1 [15d]
subject-of-test: HPPD (p-hydroxyphenylpyruvate dioxygenase) (Arabidopsis thaliana, UniProt P93836)
display-unit: µM
bound-type: =
IC50: 3.46
--
molecule: O=C(C=Cc1ccc(Br)cc1)C1C(=O)CCCC1=O [17a]
subject-of-test: HPPD (p-hydroxyphenylpyruvate dioxygenase) (Arabidopsis thaliana, UniProt P93836)
display-unit: µM
bound-type: =
IC50: 7.55
--
molecule: CCCCCc1noc2c1C(=O)CCC2
subject-of-test: HPPD (p-hydroxyphenylpyruvate dioxygenase) (Arabidopsis thaliana, UniProt P93836)
display-unit: µM
bound-type: >
IC50: 100
--
molecule: COc1ccc(C=CC(=O)C2C(=O)CCCC2=O)cc1OC [12a]
subject-of-test: HPPD (p-hydroxyphenylpyruvate dioxygenase) (Arabidopsis thaliana, UniProt P93836)
display-unit: µM
bound-type: =
IC50: 9.16
--
molecule: COc1cc(C=CC(=O)C2C(=O)CCCC2=O)cc(OC)c1OC [14a]
subject-of-test: HPPD (p-hydroxyphenylpyruvate dioxygenase) (Arabidopsis thaliana, UniProt P93836)
display-unit: µM
bound-type: =
IC50: 2.06
--
molecule: COc1ccc(CCC(=O)C2C(=O)CCCC2=O)cc1 [11b]
subject-of-test: HPPD (p-hydroxyphenylpyruvate dioxygenase) (Arabidopsis thaliana, UniProt P93836)
display-unit: µM
bound-type: =
IC50: 2.36
--
molecule: CC(=O)C1=C(O)C(O)C(C)(C)CC1=O (centres unmarked)
subject-of-test: HPPD (p-hydroxyphenylpyruvate dioxygenase) (Arabidopsis thaliana, UniProt P93836)
display-unit: µM
bound-type: =
IC50: 166
--
molecule: O=C(/C=C/c1ccc(Br)cc1)C1=C(O)C(O)CCC1=O (centres unmarked) [17b]
subject-of-test: HPPD (p-hydroxyphenylpyruvate dioxygenase) (Arabidopsis thaliana, UniProt P93836)
display-unit: µM
bound-type: =
IC50: 28.7
--
molecule: O=C1CCCC(=O)C1C(=O)CCc1ccccc1
subject-of-test: HPPD (p-hydroxyphenylpyruvate dioxygenase) (Arabidopsis thaliana, UniProt P93836)
display-unit: µM
bound-type: =
IC50: 1.27
--
molecule: COc1ccc(CCC(=O)C2C(=O)CCCC2=O)cc1OC [12b]
subject-of-test: HPPD (p-hydroxyphenylpyruvate dioxygenase) (Arabidopsis thaliana, UniProt P93836)
display-unit: µM
bound-type: =
IC50: 1.35
--
molecule: CCCCCCCCCCCc1noc2c1C(=O)CC(C)(C)C2
subject-of-test: HPPD (p-hydroxyphenylpyruvate dioxygenase) (Arabidopsis thaliana, UniProt P93836)
display-unit: µM
bound-type: >
IC50: 100
--
molecule: CCCCCCCCCc1noc2c1C(=O)C(O)CC2 (centres unmarked)
subject-of-test: HPPD (p-hydroxyphenylpyruvate dioxygenase) (Arabidopsis thaliana, UniProt P93836)
display-unit: µM
bound-type: >
IC50: 100
